Reference for the values: patent US20240116985A1

Target: full-length beta-Catenin (Uniprot ID P35222) (Homo sapiens)
Construct: 10 nM full-length beta-Catenin (Uniprot ID P35222)
Assay: Fluorescence polarization IC50 (beta-catenin / 5FAM-TCF4 10-53 competition)
Type: binding
Details: fluorescence polarization; read-out: beta-Catenin FP IC50
Assign IC50 to each entry below.
Only the number, expressed in nM, is required.

Ask: Any idea what IC50 was measured for CC(=O)N1CCC[C@]12CC=CCCCC1(CCCC=CCCCOC(=O)N3CC[C@@](C(=O)N[C@@H](Cc4ccsc4)C(=O)N[C@@H](Cc4csc5ccccc45)C(=O)N[C@@H](CCC(N)=O)C(N)=O)(C3)NC(=O)[C@H](CC(N)=O)NC(=O)[C@H](Cc3ccccc3)NC(=O)[C@H](C)NC(=O)[C@H](C)NC(=O)[C@H](CN(CC(=O)O)Cc3c(F)c(F)c(F)c(F)c3F)NC(=O)[C@H](CC(=O)O)NC1=O)NC(=O)[C@H](CC(C)(C)C)NC(=O)[C@H](CC(=O)O)NC2=O (stereo partly shown) [I-1639] ?
Result: 13

Ask: Now try CC(=O)N1CCC[C@]12CC=CCCCC1(CCCC=CCCCOC(=O)N3CC[C@@](C(=O)N[C@@H](Cc4ccsc4)C(=O)N[C@@H](Cc4csc5ccccc45)C(=O)N[C@@H](CCC(N)=O)C(N)=O)(C3)NC(=O)[C@H](CC(C)C)NC(=O)[C@H](Cc3ccccc3)NC(=O)[C@H](C)NC(=O)[C@H](C)NC(=O)[C@H](CN(C)CC(=O)O)NC(=O)[C@H](CC(=O)O)NC1=O)NC(=O)[C@H](CC(C)(C)C)NC(=O)[C@H](CC(=O)O)NC2=O (stereo partly shown) .
Result: 10

Ask: Now try CC(=O)N1CCC[C@]12CC=CCCCC1(CCCC=CCCCOC(=O)N3CC[C@@](C(=O)N[C@@H](Cc4ccccc4C(F)(F)F)C(=O)N[C@@H](Cc4csc5ccccc45)C(=O)N[C@@H](C)C(N)=O)(C3)NC(=O)[C@H](CC(C)C)NC(=O)[C@H](Cc3ccccc3)NC(=O)[C@H](C)NC(=O)[C@H](CCC(N)=O)NC(=O)[C@H](Cc3cccc(C(=O)O)c3)NC(=O)[C@H](CC(=O)O)NC1=O)NC(=O)[C@H](CC(C)(C)C)NC(=O)[C@H](CC(=O)O)NC2=O (stereo partly shown) .
Result: 17

Ask: Now try CC(=O)N1CCC[C@]12CC=CCCCC1(CCCC=CCCCOC(=O)N3CC[C@@](C(=O)N[C@@H](Cc4ccccc4C(F)(F)F)C(=O)N[C@@H](Cc4csc5ccccc45)C(=O)N[C@@H](C)C(N)=O)(C3)NC(=O)[C@H](CC(C)C)NC(=O)[C@H](Cc3ccccc3)NC(=O)[C@H](C)NC(=O)[C@H](CCC(=O)N3CCC(N4CCCCC4)CC3)NC(=O)[C@H](Cc3cccc(C(=O)O)c3)NC(=O)[C@H](CC(=O)O)NC1=O)NC(=O)[C@H](CC(C)(C)C)NC(=O)[C@H](CC(=O)O)NC2=O (stereo partly shown) .
Result: 12

###

Molecular target: full-length beta-Catenin (Uniprot ID P35222) (Homo sapiens, UniProt P35222)
Construct: 10 nM full-length beta-Catenin (Uniprot ID P35222)
Sequence (P35222 1-781): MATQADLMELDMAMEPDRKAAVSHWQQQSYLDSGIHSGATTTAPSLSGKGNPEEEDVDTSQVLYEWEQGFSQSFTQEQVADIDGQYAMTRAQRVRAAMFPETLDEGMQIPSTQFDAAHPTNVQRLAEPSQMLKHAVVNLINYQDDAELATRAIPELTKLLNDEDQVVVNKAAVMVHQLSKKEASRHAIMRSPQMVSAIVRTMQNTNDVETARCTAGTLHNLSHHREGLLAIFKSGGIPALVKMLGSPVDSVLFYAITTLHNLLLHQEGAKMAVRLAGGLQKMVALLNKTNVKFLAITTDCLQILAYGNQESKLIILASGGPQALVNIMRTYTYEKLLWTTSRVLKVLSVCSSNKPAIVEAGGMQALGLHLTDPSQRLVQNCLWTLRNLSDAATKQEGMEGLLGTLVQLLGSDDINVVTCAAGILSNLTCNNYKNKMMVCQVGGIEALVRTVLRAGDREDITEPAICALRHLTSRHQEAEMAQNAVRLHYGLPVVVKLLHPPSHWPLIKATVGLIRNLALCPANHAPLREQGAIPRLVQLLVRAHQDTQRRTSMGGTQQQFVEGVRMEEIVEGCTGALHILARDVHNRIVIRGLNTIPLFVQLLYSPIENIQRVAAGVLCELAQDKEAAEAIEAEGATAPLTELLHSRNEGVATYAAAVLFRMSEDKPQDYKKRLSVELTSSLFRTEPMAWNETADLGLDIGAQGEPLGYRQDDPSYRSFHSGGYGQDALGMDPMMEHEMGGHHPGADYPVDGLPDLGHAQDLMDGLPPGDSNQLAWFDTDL
Experiment: Fluorescence polarization IC50 (beta-catenin / 5FAM-TCF4 10-53 competition)
Format: binding
Details: read-out: beta-Catenin FP IC50
quantityName: IC50 (nM)
Only the number, expressed in nM, is required.

Ask: Any idea what IC50 was measured for CC(=O)N1CCC[C@]12CC=CCCCC1(CCCC=CCCCOC(=O)N3CC[C@@](C(=O)N[C@@H](Cc4ccsc4)C(=O)N[C@@H](Cc4csc5ccccc45)C(=O)N[C@@H](CCC(N)=O)C(=O)NCCCCCCN)(C3)NC(=O)[C@H](CC(N)=O)NC(=O)[C@H](Cc3ccccc3)NC(=O)[C@H](C)NC(=O)[C@H](C)NC(=O)[C@H](CC(=O)O)NC(=O)[C@H](CC(=O)O)NC1=O)NC(=O)[C@H](CC(C)(C)C)NC(=O)[C@H](CC(=O)O)NC2=O (stereo partly shown) [I-881] ?
Result: 10

Ask: Now try CC(=O)N1CCC[C@]12CC=CCCCC1(CCCC=CCCCOC(=O)N3CC[C@@](C(=O)N[C@@H](Cc4ccsc4)C(=O)N[C@@H](Cc4csc5ccccc45)C(=O)N[C@@H](CO)C(N)=O)(C3)NC(=O)[C@H](CO)NC(=O)[C@H](Cc3ccccc3)NC(=O)[C@H](C)NC(=O)[C@H](C)NC(=O)[C@H](Cc3cccc(C(=O)O)c3)NC(=O)[C@H](CC(=O)O)NC1=O)NC(=O)[C@H](CC(C)(C)C)NC(=O)[C@H](CC(=O)O)NC2=O (stereo partly shown) [I-984] .
Result: 179

Ask: Now try CC(=O)N1CCC[C@]12CC=CCCCC1(CCCC=CCCCOC(=O)N3CC[C@@](C(=O)N[C@@H](Cc4ccccc4Cl)C(=O)N[C@@H](Cc4csc5ccccc45)C(=O)N[C@@H](CCC(N)=O)C(N)=O)(C3)NC(=O)[C@H](CO)NC(=O)[C@H](Cc3ccccc3)NC(=O)[C@H](C)NC(=O)[C@H](C)NC(=O)[C@H](CC(N)=O)NC(=O)[C@H](CC(=O)O)NC1=O)NC(=O)[C@H](CC(C)(C)C)NC(=O)[C@H](CC(=O)O)NC2=O (stereo partly shown) .
Result: 26

Ask: Now try CC(=O)N1CCC[C@]12CC=CCCCC1(CCCC=CCCCOC(=O)N3CC[C@@](C(=O)N[C@@H](Cc4ccccc4Cl)C(=O)N[C@@H](Cc4csc5ccccc45)C(=O)N[C@@H](CCC(N)=O)C(N)=O)(C3)NC(=O)[C@H](CC(N)=O)NC(=O)[C@H](Cc3ccccc3)NC(=O)[C@H](CO)NC(=O)[C@H](C)NC(=O)[C@H](CN(CC(=O)O)CC(F)(F)F)NC(=O)[C@H](CC(=O)O)NC1=O)NC(=O)[C@H](CC(C)(C)C)NC(=O)[C@H](CC(=O)O)NC2=O (stereo partly shown) .
Result: 5

###

Target: full-length beta-Catenin (Uniprot ID P35222) (Homo sapiens)
Construct: 10 nM full-length beta-Catenin (Uniprot ID P35222)
Assay: Fluorescence polarization IC50 (beta-catenin / 5FAM-TCF4 10-53 competition)
Type: binding
Conditions: fluorescence polarization; read-out: beta-Catenin FP IC50
quantityName: IC50 (nM)
Only the number, expressed in nM, is required.

Ask: Any idea what IC50 was measured for CC(=O)N1CCC[C@]12CC=CCCCC1(CCCC=CCCCCCC[C@@](C)(C(=O)N[C@@H](Cc3ccccc3)C(=O)N[C@@H](Cc3csc4ccccc34)C(=O)N[C@@H](CC(N)=O)C(N)=O)NC(=O)[C@H](CC(N)=O)NC(=O)[C@H](Cc3ccccc3)NC(=O)[C@H](C)NC(=O)[C@H](C)NC(=O)[C@H](CCC(=O)O)NC(=O)[C@H](CC(=O)O)NC1=O)NC(=O)[C@H](CC(C)C)NC(=O)[C@H](CC(=O)O)NC2=O (stereo partly drawn) [I-752] ?
Result: 16

Ask: Now try CC(=O)N1CCC[C@]12CC=CCCCC1(CCCC=CCCCOC(=O)N3CC[C@@](C(=O)N[C@@H](Cc4ccsc4)C(=O)N[C@@H](Cc4csc5ccccc45)C(=O)N[C@@H](CCC(N)=O)C(N)=O)(C3)NC(=O)[C@H](CC(C)C)NC(=O)[C@H](Cc3ccccc3)NC(=O)[C@H](C)NC(=O)[C@H](CCCN3CCOCC3)NC(=O)[C@H](CC(=O)O)NC(=O)[C@H](CC(=O)O)NC1=O)NC(=O)[C@H](CC(C)(C)C)NC(=O)[C@H](CC(=O)O)NC2=O (stereo partly drawn) [I-1481] .
Result: 7

Ask: Now try CC(=O)N1CCC[C@]12CC=CCCCC1(CCCC=CCCCOC(=O)N3CC[C@@](C(=O)N[C@@H](Cc4ccccc4Cl)C(=O)N[C@@H](Cc4csc5ccccc45)C(=O)N[C@@H](CCC(N)=O)C(N)=O)(C3)NC(=O)[C@H](CCCCNC(C)C)NC(=O)[C@H](Cc3ccccc3)NC(=O)[C@H](C)NC(=O)[C@H](C)NC(=O)[C@H](CC(=O)O)NC(=O)[C@H](CC(=O)O)NC1=O)NC(=O)[C@H](CC(C)(C)C)NC(=O)[C@H](CC(=O)O)NC2=O (stereo partly drawn) [I-1278] .
Result: 10
